# pKd measurements, system: p38-alpha(FKIN) (Homo sapiens)
# Sequence (Q16539 whole entry): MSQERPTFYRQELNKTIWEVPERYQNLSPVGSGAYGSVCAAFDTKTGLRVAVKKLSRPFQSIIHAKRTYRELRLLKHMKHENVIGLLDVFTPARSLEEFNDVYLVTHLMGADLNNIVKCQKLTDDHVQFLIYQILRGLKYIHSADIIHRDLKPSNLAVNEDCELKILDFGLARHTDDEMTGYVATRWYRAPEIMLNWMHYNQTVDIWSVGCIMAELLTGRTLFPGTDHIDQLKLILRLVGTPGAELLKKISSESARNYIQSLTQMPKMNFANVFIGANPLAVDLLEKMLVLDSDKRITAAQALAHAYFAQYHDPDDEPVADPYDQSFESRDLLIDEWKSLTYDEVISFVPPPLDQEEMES
pKd: −log10 of the molar value.
endpoint_name: pKd

input_smiles=CSc1ccc(NC(=O)Nc2cc(C(C)(C)C)no2)cc1 result="5.00 to 6.00"
input_smiles=Cc1ccc(-n2nc(C(C)(C)C)cc2NC(=O)Nc2ccc(Br)cc2C(F)(F)F)cc1 result="6.00 to 7.00"
input_smiles=CC(C)(C)c1cc(NC(=O)Nc2ccc(NC(=O)c3cccnc3)cc2)no1 result="6.00 to 7.00"
input_smiles=CC(C)(C)c1cc(NC(=O)Nc2ccc(OCCN3CCCCC3)c3ccccc23)no1 result="> 7.00"
input_smiles=COc1ccc(NC(=O)Nc2cc(C(C)(C)C)nn2-c2ccc(C)cc2)cc1 result="6.00 to 7.00"
input_smiles=O=C(Nc1ccccc1)Nc1cc(Cl)c([N+](=O)O)cc1O result="6.00 to 7.00"
input_smiles=Cc1ccc(-n2nc(C(C)(C)C)cc2NC(=O)Nc2cc(C(C)(C)C)on2)cc1 result="6.00 to 7.00"
input_smiles=Cc1c(Cl)cccc1NC(=O)Nc1cc(C(C)(C)C)on1 result="6.00 to 7.00"
